Assignment: determine reported glycan array binding signal (z-score) for the given binders.
Target: Gal(b1-3)GalNAc(b1-3)Gal(a1-4)Gal(b1-4)Glc
Experiment: glycan array binding signal (z-score within array); higher = stronger binding
Settings: glycan notation: IUPAC condensed, linker removed
The entries come from a sample that favours the strongest signals as a whole.

# map each binder to its glycan array binding signal (z-score)
1. C-Reactive Protein (Homo sapiens), P02741 (protein) MEKLLCFLVLTSLSHAFGQTDMSRKAFVFPKESDTSYVSLKAPLTKPLKAFTVCLHFYTELSSTRGYSIFSYATKRQDNEILIFWSKDIGYSFTVGGSEILFEVPEVTVAPVHICTSWESASGIVEFWVDGKPRVRKSLKKGYTVGAEASIILGQEQDSFGGNFEGSQSLVGDIGNVNMWDFVLSPDEINTIYLGGPFSPNVLNWRALKYEVQGEVFTKPQLWP
2. DCIR1 (Mus musculus), Q9QZ15 (protein) MASEITYAEVKFKNESNSLHTYSESPAAPREKPIRDLRKPGSPSLLLTSLMLLLLLLAITFLVAFIIYFQKYSQLLEEKKAAKNIMHNELNCTKSVSPMEDKVWSCCPKDWRLFGSHCYLVPTVSSSASWNKSEENCSRMGAHLVVIQSQEEQDFITGILDTHAAYFIGLWDTGHRQWQWVDQTPYEESITFWHNGEPSSGNEKCATIIYRWKTGWGWNDISCSLKQKSVCQMKKINL
3. Strep tagII-anxA1 (Homo sapiens), P04083 (protein) MAMVSEFLKQAWFIENEEQEYVQTVKSSKGGPGSAVSPYPTFNPSSDVAALHKAIMVKGVDEATIIDILTKRNNAQRQQIKAAYLQETGKPLDETLKKALTGHLEEVVLALLKTPAQFDADELRAAMKGLGTDEDTLIEILASRTNKEIRDINRVYREELKRDLAKDITSDTSGDFRNALLSLAKGDRSEDFGVNEDLADSDARALYEAGERRKGTDVNVFNTILTTRSYPQLRRVFQKYTKYSKHDMNKVLDLELKGDIEKCLTAIVKCATSKPAFFAEKLHQAMKGVGTRHKALIRIMVSRSEIDMNDIKAFYQKMYGISLCQAILDETKGDYEKILVALCGGN

result:
1: -0.576; 2: 0.592; 3: -0.44
